system: E. faecalis (ATCC 19433); assay: MIC, E. faecalis ATCC 19433; assay type: cell-based, Enterococcus faecalis
quantityName: MIC (µM)
Give bare numbers, in µM.

>  <molecule>
CCn1cc(C(=O)O)c(=O)c2cc(F)c(N3CCN(C(=O)CNNC(=O)c4ccncc4)CC3)cc21 [compound 16]

>  <system>
E. faecalis (ATCC 19433)

>  <unitOfMeasurement>
µM

>  <MIC>
2.01

$$$$

Dear reader, for each entry below, please note its MIC.
1. CCn1cc(C(=O)O)c(=O)c2cc(F)c(N3CCN(C(=O)CCl)CC3)cc21 [compound 2]
2. CCn1cc(C(=O)O)c(=O)c2cc(F)c(N3CCN(CN4C(=O)C(=O)c5cc(C)ccc54)CC3)cc21 [20b]
3. CCn1cc(C(=O)O)c(=O)c2cc(F)c(N3CCN(CN4C(=O)C(=O)c5cc(OC)ccc54)CC3)cc21 [20c]
4. CCn1cc(C(=O)O)c(=O)c2cc(F)c(N3CCN(CN4C(=O)C(=O)c5cc(F)ccc54)CC3)cc21 [20a]

6.31
6.09
251.72
3.02

----------
test system: M. tuberculosis (MC26020); assay: microbe, parasite or virus in culture; format: cell-based, Mycobacterium tuberculosis; conditions: Mycobacterium tuberculosis, read-out: MIC M. tuberculosis (MC26020)
quantityName: MIC
Quote the value and follow it with the unit of measurement.

Below are 7 compounds. Give each one its MIC.
1. CCn1cc(C(=O)O)c(=O)c2cc(F)c(N3CCN(C(=O)CNc4ccc(Br)cc4)CC3)cc21 [4b]
2. CCn1cc(C(=O)O)c(=O)c2cc(F)c(N3CCN(C(=O)CN4CCOCC4)CC3)cc21 [7b]
3. CCn1cc(C(=O)O)c(=O)c2cc(F)c(N3CCNCC3)cc21 [Nor, norfloxacin, reference compound]
4. CCn1cc(C(=O)O)c(=O)c2cc(F)c(N3CCN(CNc4ccc([N+](=O)[O-])cc4)CC3)cc21 [compound 21]
5. O=C(O)c1cn(C2CC2)c2cc(N3CCNCC3)c(F)cc2c1=O [Cip, ciprofloxacin, reference compound]
6. CCn1cc(C(=O)O)c(=O)c2cc(F)c(N3CCN(C(=O)CN4CCCCC4)CC3)cc21 [7a]
7. NNC(=O)c1ccncc1 [INH, isoniazid, reference compound]

1: 3.76 µM; 2: 1.67 µM; 3: 1.56 µM; 4: 6.39 µM; 5: 2.26 µM; 6: 72 µM; 7: 1.82 µM

Requested read-out: MIC. Entry: CCn1cc(C(=O)O)c(=O)c2cc(F)c(N3CCN(C(=O)Cn4ccnc4)CC3)cc21 [8a]
2.33 µM

----------
system: P. aeruginosa (PAO1); experiment: MIC, microdilution, P. aeruginosa PAO1; type: cell-based, Pseudomonas aeruginosa
Provide the reported MIC of each item.
Numbers only, in µM.

>  <molecule>
CCn1cc(C(=O)O)c(=O)c2cc(F)c(N3CCN(CN4C(=O)C(=O)c5cc(OC)ccc54)CC3)cc21 [20c]

>  <system>
P. aeruginosa (PAO1)

>  <value>
62.93

$$$$
>  <molecule>
CCn1cc(C(=O)O)c(=O)c2cc(F)c(N3CCN(C(=O)CCl)CC3)cc21 [compound 2]

>  <system>
P. aeruginosa (PAO1)

>  <value>
192

$$$$
>  <molecule>
CCn1cc(C(=O)O)c(=O)c2cc(F)c(N3CCN(CN4C(=O)C(=O)c5cc(C)ccc54)CC3)cc21 [20b]

>  <system>
P. aeruginosa (PAO1)

>  <value>
16.24

$$$$
>  <molecule>
CCn1cc(C(=O)O)c(=O)c2cc(F)c(N3CCN(C(=O)CNNC(=O)c4ccncc4)CC3)cc21 [compound 16]

>  <system>
P. aeruginosa (PAO1)

>  <value>
515.61

$$$$

Item CCn1cc(C(=O)O)c(=O)c2cc(F)c(N3CCN(CN4C(=O)C(=O)c5cc(F)ccc54)CC3)cc21 [20a] with P. aeruginosa (PAO1) - MIC?
17.12

----------
tested on: E. coli; settings: mupirocin alone 64 µg/mL
Residues, ends and D or L forms follow the SMILES beside them.
quantityName: FICM (MICMcheckerboard/MICM)
Numbers only.

>  <compound>
CCn1cc(C(=O)O)c(=O)c2cc(F)c(N3CCN(CNc4ccc([N+](=O)[O-])cc4)CC3)cc21

>  <system>
E. coli

>  <FICM (MICMcheckerboard/MICM)>
1

$$$$
>  <compound>
CCn1cc(C(=O)O)c(=O)c2cc(F)c(N3CCN(C(=O)CN4CCOCC4)CC3)cc21

>  <system>
E. coli

>  <FICM (MICMcheckerboard/MICM)>
0.0313

$$$$
>  <compound>
CCn1cc(C(=O)O)c(=O)c2cc(F)c(N3CCN(C(=O)CN4CCCCC4)CC3)cc21

>  <system>
E. coli

>  <FICM (MICMcheckerboard/MICM)>
0.75

$$$$
>  <compound>
CCn1cc(C(=O)O)c(=O)c2cc(F)c(N3CCN(C(=O)CCl)CC3)cc21

>  <system>
E. coli

>  <FICM (MICMcheckerboard/MICM)>
0.2656

$$$$
>  <compound>
CCn1cc(C(=O)O)c(=O)c2cc(F)c(N3CCNCC3)cc21 [Nor, norfloxacin, reference compound]

>  <system>
E. coli

>  <FICM (MICMcheckerboard/MICM)>
0.5

$$$$
>  <compound>
CC(C)C[C@@H]1NC(=O)[C@@H](Cc2ccccc2)NC(=O)[C@H](CCN)NC(=O)[C@@H](NC(=O)[C@H](CCN)NC(=O)[C@@H](N)[C@@H](C)O)CCNC(=O)[C@H]([C@@H](C)O)NC(=O)[C@H](CCN)NC(=O)[C@H](CCN)NC1=O [PolBN, polymyxin B nonapeptide, reference compound] (HELM PEPTIDE1{T.[Dab].[Dab].[Dab].[dF].L.[Dab].[Dab].T}$PEPTIDE1,PEPTIDE1,3:R3-9:R2$$$V2.0; N-terminus assumed)

>  <system>
E. coli

>  <FICM (MICMcheckerboard/MICM)>
0.0156

$$$$

Kindly review the next compound as well.
Recorded FICM (MICMcheckerboard/MICM) for CC(C)(N)[C@H](NC(=O)c1ccc(C#CC#C[C@@H]2C[C@H]2CO)cc1)C(=O)NO [ACHN-975, reference compound] , please?
0.0469

----------
system: cell wall biosynthesis in B. subtilis DSM402; test: Summary of cell wall synthesis experiments; assay type: cell-based, Bacillus subtilis
quantityName: CWB inhibited?

>  <compound>
CN[C@H](CC(C)C)C(=O)N[C@H]1C(=O)N[C@@H](CC(N)=O)C(=O)N[C@H]2C(=O)N[C@H]3C(=O)N[C@H](C(=O)N[C@H](C(=O)O)c4cc(O)cc(O)c4-c4cc3ccc4O)[C@H](O)c3ccc(c(Cl)c3)Oc3cc2cc(c3O[C@@H]2O[C@H](CO)[C@@H](O)[C@H](O)[C@H]2O[C@H]2C[C@](C)(N)[C@H](O)[C@H](C)O2)Oc2ccc(cc2Cl)[C@H]1O [Van, vancomycin, reference compound]

>  <CWB inhibited?>
yes

$$$$
>  <compound>
C[C@@H]1O[C@@H]1P(=O)(O)O

>  <CWB inhibited?>
yes

$$$$
>  <compound>
N[C@@H]1CON=C1O

>  <CWB inhibited?>
yes

$$$$
>  <compound>
CCn1cc(C(=O)O)c(=O)c2cc(F)c(N3CCN(CN4C(=O)C(=O)c5cc(F)ccc54)CC3)cc21 [20a]

>  <CWB inhibited?>
yes ^b

$$$$

Below are some compounds; for each one, tell me its CWB inhibited?.
1. O=C(O)c1cn(C2CC2)c2cc(N3CCNCC3)c(F)cc2c1=O [Cip, ciprofloxacin, reference compound]
2. CCn1cc(C(=O)O)c(=O)c2cc(F)c(N3CCNCC3)cc21 [Nor, norfloxacin, reference compound]
3. CCn1cc(C(=O)O)c(=O)c2cc(F)c(N3CCN(CNc4ccc([N+](=O)[O-])cc4)CC3)cc21
4. CCn1cc(C(=O)O)c(=O)c2cc(F)c(N3CCN(C(=O)CCl)CC3)cc21
5. CCn1cc(C(=O)O)c(=O)c2cc(F)c(N3CCN(C(=O)CNNC(=O)c4ccncc4)CC3)cc21

1: no; 2: no; 3: yes ^b; 4: no; 5: no

----------
tested on: B. subtilis DSM402; experiment: Peptidoglycan integrity assay (acetic acid/methanol fixation); details: 1x MIC; 30 min (cell wall inhibitors) or 60 min
quantityName: PG integrity

Worked examples, 5 compounds total:
>  <compound>
N[C@@H]1CON=C1O

>  <system>
B. subtilis DSM402

>  <PG integrity>
compromised

$$$$
>  <compound>
O=C(O)c1cn(C2CC2)c2cc(N3CCNCC3)c(F)cc2c1=O [Cip, ciprofloxacin, reference compound]

>  <system>
B. subtilis DSM402

>  <PG integrity>
intact

$$$$
>  <compound>
CCn1cc(C(=O)O)c(=O)c2cc(F)c(N3CCN(C(=O)CNNC(=O)c4ccncc4)CC3)cc21

>  <system>
B. subtilis DSM402

>  <PG integrity>
intact

$$$$
>  <compound>
CCn1cc(C(=O)O)c(=O)c2cc(F)c(N3CCNCC3)cc21 [Nor, norfloxacin, reference compound]

>  <system>
B. subtilis DSM402

>  <PG integrity>
intact

$$$$
>  <compound>
C[C@@H]1O[C@@H]1P(=O)(O)O

>  <system>
B. subtilis DSM402

>  <PG integrity>
compromised

$$$$

// moving on: another record for PG integrity
# PG integrity lookup, item CN[C@H](CC(C)C)C(=O)N[C@H]1C(=O)N[C@@H](CC(N)=O)C(=O)N[C@H]2C(=O)N[C@H]3C(=O)N[C@H](C(=O)N[C@H](C(=O)O)c4cc(O)cc(O)c4-c4cc3ccc4O)[C@H](O)c3ccc(c(Cl)c3)Oc3cc2cc(c3O[C@@H]2O[C@H](CO)[C@@H](O)[C@H](O)[C@H]2O[C@H]2C[C@](C)(N)[C@H](O)[C@H](C)O2)Oc2ccc(cc2Cl)[C@H]1O [Van, vancomycin, reference compound]
compromised
